Hello, the source for this data is patent US10208019B2, in case you need it.

target: human GLP-1R (Homo sapiens, UniProt P43220, G168S)
Sequence (P43220 24-463 G168S limits assumed): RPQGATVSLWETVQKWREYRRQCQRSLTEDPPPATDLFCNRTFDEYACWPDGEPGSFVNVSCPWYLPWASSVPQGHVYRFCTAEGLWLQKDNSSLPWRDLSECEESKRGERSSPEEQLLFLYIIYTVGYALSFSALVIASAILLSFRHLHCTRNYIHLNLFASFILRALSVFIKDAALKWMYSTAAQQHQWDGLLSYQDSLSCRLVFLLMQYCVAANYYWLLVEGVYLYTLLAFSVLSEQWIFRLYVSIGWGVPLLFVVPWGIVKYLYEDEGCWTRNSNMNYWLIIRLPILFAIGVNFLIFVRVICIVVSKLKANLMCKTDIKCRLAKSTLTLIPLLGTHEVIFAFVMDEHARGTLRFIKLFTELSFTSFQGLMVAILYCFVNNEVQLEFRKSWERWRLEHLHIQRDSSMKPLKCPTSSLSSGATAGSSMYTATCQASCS
testProtocol: CHO GLP-1R Clone H6—Assay 1: HTRF cAMP cell-based functional agonist assay (high GLP-1R density)
conditionInfo: read-out: Assay 1 Emax (%), CHO GLP-1R Clone H6; relative to saturating concentration of full agonist GLP-1 (1 μM); arithmetic mean
Note to self: use true (1) only for Emax readings below 80%; a reading exactly at 80% still gets false (0).

A selection of reference data follows.
• O=C(O)c1cnc2nc(CN3CCC(c4cccc(OCc5ccc(Cl)cc5F)n4)CC3)n(CC(F)(F)F)c2c1 = true (1)
• CCn1cncc1Cn1c(CN2CCC(c3cccc(OCc4ccc(C#N)cc4F)n3)CC2)nc2ccc(C(=O)O)cc21 [Example 10A-66] = false (0)
• COCCn1c(CN2CCN(c3cccc(OCc4ccc(Cl)cc4F)n3)CC2(C)C)nc2ccc(C(=O)O)cc21 [Example 12A-06] = true (1)

# ---- query compound ----
QUERY: Quick check: does CCCn1cnnc1Cn1c(CN2CCC(c3cccc(OCc4ccc(Cl)cc4F)n3)CC2)nc2ccc(C(=O)O)cc21 have Emax under 80%?
RESULT: false (0)
